Value source: the supplement of paper PMC7600603

system: DLD1 NRF2-WT; test: drug sensitivity score (DSS) viability (DSS score); higher = more sensitive; extreme values may be limits of the assay; details: 72 h; CellTiter-Glo viability
measurement.label: drug sensitivity score

C=CC(=O)N1CCC[C@@H](n2nc(-c3ccc(Oc4ccccc4)cc3)c3c(N)ncnc32)C1 [Ibrutinib] :: 0.1
CC[C@H](CO)Nc1nc(NCc2ccccc2)c2ncn(C(C)C)c2n1 [Seliciclib] :: 1.1
CCn1cc(-c2ccnc3[nH]c(-c4cccc(CN(C)C)c4)cc23)c(-c2ccc(NC(=O)N(C)C)cc2)n1 :: 2.8

stdin: What value of drug sensitivity score has been recorded for this entry: C[C@@]1(C(=O)Nc2ccc(F)nc2)CCCN1c1nc(Nc2cc(C3CC3)n[nH]2)c2cccn2n1
stdout: 13

stdin: What value of drug sensitivity score has been recorded for this entry: COc1ccc(COc2cc3oc(=O)c4cc(C(C)O)ccc4c3cc2OC)cc1 (centres undefined) [Palomid-529]
stdout: 0

stdin: What value of drug sensitivity score has been recorded for this entry: CN1CCN(C2CCC(n3cc(-c4ccc(Oc5ccccc5)cc4)c4c(N)ncnc43)CC2)CC1 (centres undefined)
stdout: 8.8

stdin: What value of drug sensitivity score has been recorded for this entry: Clc1ccc(C(c2ccccc2Cl)C(Cl)Cl)cc1 (centres undefined) [Mitotane]
stdout: 0

stdin: What value of drug sensitivity score has been recorded for this entry: CC/C(=C(\c1ccccc1)c1ccc(OCCN(C)C)cc1)c1ccccc1 [Tamoxifen]
stdout: 2

stdin: What value of drug sensitivity score has been recorded for this entry: CCOCc1nc2c(N)nc3ccccc3c2n1CC(C)(C)O [Resiquimod]
stdout: 0.7

###

test system: DLD1 NRF2-GOF; test: drug sensitivity score (DSS) cytotoxicity (DSS score); higher = more toxic; extreme values may be limits of the assay; conditions: 72 h; CellTox Green cytotoxicity
measurement.label: drug sensitivity score
Could you respond with only the numeric value?

stdin: What value of drug sensitivity score has been recorded for this entry: CON(C)C(=O)N1N=C(c2cc(F)ccc2F)S[C@@]1(CCCN)c1ccccc1
stdout: 6.2

###

system: DLD1 NRF2-GOF; assay: TC50 cytotoxicity; higher = less toxic; details: 72 h; CellTox Green cytotoxicity
Listing of entries alongside the reported TC50 cytotoxicity.

Known results for compounds:
CON(C)C(=O)N1N=C(c2cc(F)ccc2F)S[C@@]1(CCCN)c1ccccc1 :: > 1 µM
CNC(=O)c1ccc(C)c(-n2c(C)cc(OCc3ccc(F)cc3F)c(Br)c2=O)c1 :: > 1 µM
Nc1cccc2c1CN(C1CCC(=O)NC1=O)C2=O (stereo unspecified) [Lenalidomide] :: > 100 µM

stdin: What value of TC50 cytotoxicity has been recorded for this entry: N#Cc1ccc(COC[C@H]2O[C@@H](n3c(NCc4ccc(Cl)c(Cl)c4)nc4c(N)ncnc43)[C@H](O)[C@@H]2O)cc1
stdout: > 10 µM

stdin: What value of TC50 cytotoxicity has been recorded for this entry: CCCCCCCCCCCCCCCCCCOP(=O)([O-])OC1CC[N+](C)(C)CC1
stdout: > 2.5 µM

stdin: What value of TC50 cytotoxicity has been recorded for this entry: O=C(/C=C\n1cnc(-c2cc(C(F)(F)F)cc(C(F)(F)F)c2)n1)NNc1ccccn1 [Verdinexor]
stdout: > 1 µM

stdin: What value of TC50 cytotoxicity has been recorded for this entry: CNC(=O)c1cccc(-c2ccc3c(N4CCOC[C@@H]4C)nc(N4CCOC[C@@H]4C)nc3n2)c1
stdout: > 10 µM

stdin: What value of TC50 cytotoxicity has been recorded for this entry: COc1cc(C)[nH]c(=O)c1CNC(=O)c1c(C)n([C@H](C)C2CCOCC2)c2ccccc12
stdout: > 10 µM

###

test system: DLD1 NRF2-WT; test: drug sensitivity score (DSS) viability (DSS score); higher = more sensitive; extreme values may be limits of the assay; details: 72 h; CellTiter-Glo viability
Please note: drug sensitivity score exactly at 3 is N. Only values below 3 get Y.

stdin: Check if drug sensitivity score falls below 3 for c1cn2cc(-c3ccc4cn[nH]c4c3)nc(Nc3ccc(N4CCOCC4)cc3)c2n1 [Entospletinib] .
stdout: Y

stdin: Check if drug sensitivity score falls below 3 for COc1cc2ncnc(Nc3ccc(F)c(Cl)c3)c2cc1NC(=O)/C=C/CN1CCCCC1 [Dacomitinib] .
stdout: N

stdin: Check if drug sensitivity score falls below 3 for COCC1(CO)C(=O)C2CCN1CC2 (stereo not drawn) [APR-246] .
stdout: N

stdin: Check if drug sensitivity score falls below 3 for CNCc1ccc(-c2[nH]c3cc(F)cc4c3c2CCNC4=O)cc1 [Rucaparib] .
stdout: Y

stdin: Check if drug sensitivity score falls below 3 for Cn1c(Nc2ccc(C(F)(F)F)cc2)nc2cc(Oc3ccnc(-c4ncc(C(F)(F)F)[nH]4)c3)ccc21 [NVP-RAF265] .
stdout: N

stdin: Check if drug sensitivity score falls below 3 for COc1cc(N2CCN(C)CC2)ccc1Nc1nccc(-c2cn(C)c3cnccc23)n1 [AZ191] .
stdout: N

stdin: Check if drug sensitivity score falls below 3 for O=C(Nc1ccc2[nH]nc(-c3ccncc3)c2c1)[C@@H]1CCN(CC(=O)N2CCN(c3ccc(-c4ncccn4)cc3)CC2)C1 .
stdout: N

stdin: Check if drug sensitivity score falls below 3 for CCCS(=O)(=O)Nc1ccc(F)c(C(=O)c2c[nH]c3ncc(-c4ccc(Cl)cc4)cc23)c1F [Vemurafenib] .
stdout: Y

###

Listing of entries alongside the reported drug sensitivity score.
test system: DLD1 NRF2-WT; assay: drug sensitivity score (DSS) cytotoxicity (DSS score); higher = more toxic; extreme values may be limits of the assay; conditions: 72 h; CellTox Green cytotoxicity
Could you respond with only the numeric value?

C1=N/C2=N/c3ccc(OCCN4CCCC4)c(c3)COC/C=C/COCc3cccc(c3)C(=C1)N2 [Pacritinib] :: 8.1
CC(=O)Nc1cccc(-n2c(=O)n(C3CC3)c(=O)c3c(Nc4ccc(I)cc4F)n(C)c(=O)c(C)c32)c1 [Trametinib] :: 0
Cc1cn(-c2cc(NC(=O)c3ccc(C)c(Nc4nccc(-c5cnccn5)n4)c3)cc(C(F)(F)F)c2)cn1 [Radotinib] :: 0

# input for lookup
stdin: Return drug sensitivity score measured with DLD1 NRF2-WT given this compound: CCC1(c2ccc(N)cc2)CCC(=O)NC1=O (centres undefined) [Aminoglutethimide]
stdout: 0

###

test system: DLD1 NRF2-GOF; assay: TC50 cytotoxicity; higher = less toxic; conditions: 72 h; CellTox Green cytotoxicity
measurement.label: TC50 cytotoxicity

Known results for compounds:
Nc1cc(F)ccc1NC(=O)c1ccc(CNC(=O)/C=C/c2cccnc2)cc1 [Chidamide] :: > 10 µM
Clc1ccc(C(c2ccccc2Cl)C(Cl)Cl)cc1 (centres undefined) :: > 10 µM

stdin: What value of TC50 cytotoxicity has been recorded for this entry: COc1ccc(-c2ccc3ncc4c(c3c2)n(-c2ccc(N3CCNCC3)c(C(F)(F)F)c2)c(=O)n4C)cn1
stdout: 0.359 µM

stdin: What value of TC50 cytotoxicity has been recorded for this entry: N#CC(c1ccnc(OCc2ccc(CN3CCOCC3)cc2)n1)c1nc2ccccc2s1 (centres undefined)
stdout: > 10 µM

###

tested on: DLD1 NRF2-WT; assay: drug sensitivity score (DSS) viability (DSS score); higher = more sensitive; extreme values may be limits of the assay; conditions: 72 h; CellTiter-Glo viability
Classes (drug sensitivity score): group 1: < 5; group 2: ≥ 5 and < 8; group 3: ≥ 8

Worked cases, answers included:
CC(=O)c1cnc2ccc(-c3cc(Cl)c(O)c(Cl)c3)nc2c1N[C@H]1CC[C@H](CN(C)C)CC1 [OTS167] :: group 3
COc1ncc(-c2ccc3nccc(-c4ccnnc4)c3c2)cc1NS(=O)(=O)c1ccc(F)cc1F [Omipalisib] :: group 3
Cc1cc([C@@H](C)Nc2ccccc2C(=O)O)c2nc(N3CCOCC3)cc(=O)n2c1 [AZD-6482] :: group 1
COc1cccc2c1C(=O)c1c(O)c3c(c(O)c1C2=O)C[C@@](O)(/C(CO)=N/NC(=O)CCCCCN1C(=O)C=CC1=O)C[C@@H]3O[C@H]1C[C@H](N)[C@H](O)[C@H](C)O1 [Aldoxorubicin] :: group 3
CCn1c(-c2nonc2N)nc2c(C#CC(C)(C)O)ncc(OC[C@H]3CCCNC3)c21 :: group 1
Cc1ccc(F)c(NC(=O)Nc2ccc(-c3cccc4[nH]nc(N)c34)cc2)c1 [Linifanib] :: group 1
CC[C@]1(O)C[C@H]2CN(CCc3c([nH]c4ccccc34)[C@@](C(=O)OC)(c3cc4c(cc3OC)N(C=O)[C@H]3[C@@](O)(C(=O)OC)[C@H](OC(C)=O)[C@]5(CC)C=CCN6CC[C@]43[C@@H]65)C2)C1 [Vincristine] :: group 3
COc1cc2/c(=N/c3ccc(Br)cc3F)nc[nH]c2cc1OCC1CCN(C)CC1 [Vandetanib] :: group 2

stdin: Lab note: which band did CC(=O)O[C@H]1C(=O)[C@@]2(C)[C@H]([C@H](OC(=O)c3ccccc3)[C@]3(O)C[C@H](OC(=O)[C@H](O)[C@@H](NC(=O)c4ccccc4)c4ccccc4)C(C)=C1C3(C)C)[C@]1(OC(C)=O)CO[C@@H]1C[C@@H]2O [Paclitaxel] land in?
stdout: group 3

stdin: Lab note: which band did Cn1ncnc1[C@H]1c2n[nH]c(=O)c3cc(F)cc(c23)N[C@@H]1c1ccc(F)cc1 [Talazoparib] land in?
stdout: group 2

stdin: Lab note: which band did CC(C)Nc1cc(-c2c[nH]c(C(=O)N[C@H](CO)c3cccc(Cl)c3)c2)c(Cl)cn1 [Ulixertinib] land in?
stdout: group 2

stdin: Lab note: which band did CNC(=O)c1ccc(-c2cnc3ncc(Cc4ccc5ncccc5c4)n3n2)cc1F [Capmatinib] land in?
stdout: group 1
